pIC50: −log10 of the molar value. Counter-ions that a name gives are not always drawn.
REPORTED ENDPOINT: pIC50

Query: Lab note: Bovine LOX (Bos taurus (Bovine), UniProt P33072) assay, enter pIC50 for Cc1c(Cc2ccc(S(=O)(=O)N(C)C)cc2)c2ncc(F)cc2n1C/C(F)=C/CN [Compound 24, dihydrochloride] here
Result: < 6.52

Query: Lab note: Bovine LOX (Bos taurus (Bovine), UniProt P33072) assay, enter pIC50 for Cc1c(Cc2ccc(S(=O)(=O)N(C)C)cc2)c2cc(C(=O)O)ccc2n1C/C(F)=C/CN [Compound 1, hydrochloride] here
Result: < 6.52

Query: Lab note: Bovine LOX (Bos taurus (Bovine), UniProt P33072) assay, enter pIC50 for CN(C)S(=O)(=O)c1ccc(Cc2c(C(C)(C)O)n(C/C(F)=C/CN)c3cccnc23)cc1 [Compound 25, dihydrochloride] here
Result: < 6.52

Query: Lab note: Bovine LOX (Bos taurus (Bovine), UniProt P33072) assay, enter pIC50 for Cc1ccc2c(n1)c(Cc1cccc(S(C)(=O)=O)c1)c(C)n2C/C(F)=C/CN [Compound 17, dihydrochloride] here
Result: < 6.52

Query: Lab note: Bovine LOX (Bos taurus (Bovine), UniProt P33072) assay, enter pIC50 for CC(C)c1c(Cc2ccc(S(C)(=O)=O)nc2)c2ncccc2n1C/C(F)=C/CN [Compound 22, trihydrochloride] here
Result: < 6.52
